studyTarget: T1, human SPNS2 (human, UniProt Q8IVW8 1-549)
T1 construct: S1P transporter; in Cell ELISA and S1P assays on Flp-in 293 cells that also express human SphK1; also called Spinster homolog 2; native type
T1 sequence: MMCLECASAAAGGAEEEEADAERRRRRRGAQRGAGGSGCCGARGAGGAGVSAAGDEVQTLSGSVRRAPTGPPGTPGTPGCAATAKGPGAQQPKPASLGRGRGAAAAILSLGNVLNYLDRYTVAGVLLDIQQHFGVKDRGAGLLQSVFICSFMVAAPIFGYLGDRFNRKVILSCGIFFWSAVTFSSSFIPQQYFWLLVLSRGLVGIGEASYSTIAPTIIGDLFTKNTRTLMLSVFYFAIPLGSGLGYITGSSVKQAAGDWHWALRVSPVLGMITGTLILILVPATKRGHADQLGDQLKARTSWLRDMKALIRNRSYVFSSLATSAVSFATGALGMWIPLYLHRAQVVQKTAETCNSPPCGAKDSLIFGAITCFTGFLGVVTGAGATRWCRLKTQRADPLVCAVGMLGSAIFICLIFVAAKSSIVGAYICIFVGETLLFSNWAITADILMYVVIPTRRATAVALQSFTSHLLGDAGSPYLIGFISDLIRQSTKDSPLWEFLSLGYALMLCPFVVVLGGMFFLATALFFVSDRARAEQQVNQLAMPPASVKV
protocolDescription: Cell ELISA
Overview of recorded Emax for various binders
quantity: Emax (absorbance)

INSERT INTO measurements (binder, observedresult) VALUES
  ('89-1207D (antibody, IgG2b, V domains shown) VH: EVQLVGSGGGLVQPGRSMKLSCEASGFTFSNHYMAWVRQAPTKGLEWVATISTGGGNTYYRDSVKGRFTISRDNARSILSLQMDSLRSEDTATYYCARQDYSNYMGGFAYWGQGTLVTVSS VL: QFVLTQPNSVSTNLGSTVKLSCTRSIGNIGNNYVNWYKQYEGRSPTTMIYRDDERPDGVPDRFSGSIDRSSNSALLTINNVQTEDEADYFCQSFSSGMFIFGGGTKLTVL', 2.03),
  ('83-1110B (antibody, IgG2b, V domains shown) VH: EVQLQQSGPEFVRPGTSVKFSCKVSGGSITSYFIHFVKQRPGQGLEWIGKIDPEDDSTKYGEKFKNKATLTADTSSNTAFLKLSSLTSEDTAIYFCTTLTGLDYWGQGVMVTVSS VL: DIQMTQSPPVLSAAVGDRVTLSCKASRSLNKNLDWYQQKHGETPKLLIYHTHNLQTGIPSRFSGSGSDTDYTLTISSLQTEDVATYYCYQYHSGWTFGGGTRLELRR', 1.6),
  ('94-1311E (antibody, V domains shown) VH: EVQLQQSGAGLVRPRTSVRLSCKISGDSITAYYVHFVKQRPGQGLEWIGRIDPEDDSTKYSEKFKNKATLTADVSSSTAYLILSSLTSDDSATYFCSTLTGLDYWGQGVMVTVSS VL: DIQMTQSPPVLSASVGDRVTLSCKASQSVHNKLDWYQQKHGEAPKLLIYYTHNLQTGIPSRFSGSGSGSDYTLTISSLRAEDVATYYCFQYYSGWTFGGGTKLEMKR', 1.61),
  ('93-1310F (antibody, IgG2b, V domains shown) VH: EVQLVETGGGLVQPGSSLKLSCATSGFTFSDTWMSWVRQAPGKGLEWVALIKDKNSNYEANYAESVKGRFTISRDDSKRRVYLQMFTLRDQDTATYYCTSHEDFYYYSSYYFDYWGHGVMVTVSS VL: DIVLTQSPATLSVTPGESVSLSCRASQGISTSIHWYQQKSNGSPRLLIKYASQSISGIPSRFSGSGSGTDFTLRINRVESEDFSVYYCQQTYSLPLTFGSGTRLEIKR', 1.64),
  ('18-0211B (antibody, IgG2b, V domains shown) VH: AVQLVGSGGGLVQPGRSMKLSCEASGFTFSNHYMAWVRQAPTRGLEWVATISTGGGNTYYRDSVKGRFTISRDNTRSTLSLQMDSLRSEDTATYYCTRQDYTNYMGGFAYWGQGTLVTVSS VL: QFVLTQPNSVSTNLGSTVKLSCTRSIGNIGNNYVNWYKQYEGRSPTTLIYRDDERPDGVPDRFSGSIDRSSNSALLTINSVQTEDGADYFCQSFSSGIFIFGGGTTLTVL', 1.72);
